# Tested on: HCT116 p53^−/− cells
# testMethodNotes: SRB growth inhibition assay in HCT116 p53-/- cells
# Assay type: cell-based, human
# setupConditions: Homo sapiens, HCT-116; SRB assay, 48 h of treatment
Output yes for records whose GI50 is lower than 6 µM, no for records at or above 6 µM.

smilesInput: CC(C)=CCOc1ccccc1/C=C1\COC/C(=C\c2ccccc2OCC=C(C)C)C1=O
label: no
--
smilesInput: CCCc1c(OC)ccc(C(=O)/C=C/c2ccc(Br)cc2)c1O
label: no
--
smilesInput: COc1cc(/C=C2\CSC/C(=C\c3cc(OC)c(OC)c(OC)c3)C2=O)cc(OC)c1OC
label: yes
--
smilesInput: O=C1/C(=C/c2ccc(Cl)cc2)CCc2ccccc21
label: no
--
smilesInput: COc1cc(/C=C2\CCC/C(=C\c3cc(OC)c(OC)c(OC)c3)C2=O)cc(OC)c1OC
label: yes
--
smilesInput: COc1ccc2c(c1OC)C/C(=C\c1ccc(Cl)cc1)C2=O
label: yes
--
smilesInput: CC(C)=CCOc1ccc(/C=C2\COC/C(=C\c3ccc(OCC=C(C)C)cc3)C2=O)cc1
label: yes
--
smilesInput: CCCc1c(OC)ccc(C(=O)/C=C/c2cc(OC)c(OC)c(OC)c2)c1OCC=C(C)C
label: yes
--
smilesInput: O=C1/C(=C/c2ccc(Cl)cc2)CC/C1=C\c1ccc(Cl)cc1
label: no
--
smilesInput: CCCc1c(OC)ccc(C(=O)/C=C/c2ccc(F)cc2)c1O
label: no

---

compound: CCCc1c(OC)ccc2c(=O)cc(-c3cc(OC)c(OC)c(OC)c3)oc12
melting point: 153 to 155 °C
--
compound: CCCc1c(OC)ccc(C(=O)/C=C/c2cc(OC)c(OC)c(OC)c2)c1OCC=C(C)C
melting point: 100 to 103 °C
--
compound: O=C1/C(=C/c2ccc(Cl)cc2)CSC/C1=C\c1ccc(Cl)cc1
melting point: 126 to 128 °C
--
compound: COc1cc(/C=C2\COc3ccccc3C2=O)cc(OC)c1OC
melting point: 109 to 111 °C
--
compound: COc1cc2c(cc1OC)C(=O)/C(=C/c1cc(OC)c(OC)c(OC)c1)C2
melting point: 156 to 159 °C
--
compound: COc1ccc2c(c1OC)C/C(=C\c1ccc(Cl)cc1)C2=O
melting point: 206 to 209 °C
--
compound: O=C1/C(=C/c2ccc(Cl)cc2)Cc2ccccc21
melting point: 179 to 181 °C
--
compound: CC(C)=CCOc1ccc(/C=C2\COC/C(=C\c3ccc(OCC=C(C)C)cc3)C2=O)cc1
melting point: 145 to 147 °C
--
compound: CCCc1c(OC)ccc(C(=O)/C=C/c2ccc(Br)cc2)c1O
melting point: 115 to 116 °C
--
compound: O=C1C(Cc2ccc(Cl)cc2)COCC1Cc1ccc(Cl)cc1 (stereo not drawn)
melting point: 145 to 146 °C
--
compound: OC1/C(=C/c2ccc(Cl)cc2)COC/C1=C\c1ccc(Cl)cc1 (stereo not drawn)
melting point: 219 to 222 °C
--
compound: COc1cc(/C=C2\Cc3ccccc3C2=O)cc(OC)c1OC
melting point: 160 to 163 °C
--
compound: CCCc1c(OC)ccc(C(=O)/C=C/c2ccc(F)cc2)c1O
melting point: 115 to 117 °C
--
compound: COc1cc(/C=C2\Cc3c(ccc(OC)c3OC)C2=O)cc(OC)c1OC
melting point: 165 to 168 °C
--
compound: CCCc1c(OC)ccc(C(O)/C=C/c2cc(OC)c(OC)c(OC)c2)c1O (stereo not drawn)
melting point: 219 to 222 °C
--
compound: O=C1/C(=C/c2ccc(Cl)cc2)CSc2ccccc21
melting point: 139 to 141 °C
--
compound: CCCc1c(OC)ccc(C(=O)/C=C/c2ccc(Cl)cc2)c1O
melting point: 109 to 112 °C
--
compound: COc1cc(/C=C2\CSC/C(=C\c3cc(OC)c(OC)c(OC)c3)C2=O)cc(OC)c1OC
melting point: 219 to 222 °C
--
compound: CCCc1c(OC)ccc(C(=O)/C=C/c2ccc(N3CCOCC3)cc2)c1O
melting point: 129 to 131 °C
--
compound: COc1cc2c(cc1OC)C(=O)/C(=C/c1cc(OC)c(OC)c(OC)c1)CC2
melting point: 145 to 147 °C
--
compound: CCCc1c(OC)ccc(C(=O)/C=C/c2ccc(N(C)C)cc2)c1O
melting point: 126 to 128 °C

---

# Test system: HCT116 p53^−/− cells
# testMethodNotes: SRB growth inhibition assay in HCT116 p53-/- cells
# Assay type: cell-based, human
# setupConditions: Homo sapiens, HCT-116; SRB assay, 48 h of treatment
# GI50 annotations

compound: COc1cc(/C=C2\Cc3c(ccc(OC)c3OC)C2=O)cc(OC)c1OC
GI50: 3.1 µM
--
compound: COc1cc(/C=C2\CSc3ccccc3C2=O)cc(OC)c1OC
GI50: 3.9 µM
--
compound: O=C1/C(=C/c2ccc(Cl)cc2)CCC/C1=C\c1ccc(Cl)cc1
GI50: 2.95 µM
--
compound: COc1cc(/C=C/C(=O)/C=C/c2cc(OC)c(OC)c(OC)c2)cc(OC)c1OC
GI50: > 30 µM
--
compound: COc1cc2c(cc1OC)C(=O)/C(=C/c1cc(OC)c(OC)c(OC)c1)CC2
GI50: 2.9 µM
--
compound: CCCc1c(OC)ccc(C(=O)CCc2cc(OC)c(OC)c(OC)c2)c1O
GI50: 11.2 µM
--
compound: O=C1/C(=C/c2ccc(Cl)cc2)CSC/C1=C\c1ccc(Cl)cc1
GI50: 1.05 µM
--
compound: O=C1/C(=C/c2ccc(Cl)cc2)COc2ccccc21
GI50: 5.29 µM
--
compound: COc1cc2c(cc1OC)C(=O)/C(=C/c1cc(OC)c(OC)c(OC)c1)C2
GI50: 4.1 µM
--
compound: OC1/C(=C/c2ccc(Cl)cc2)COC/C1=C\c1ccc(Cl)cc1 (stereo not shown)
GI50: > 30 µM
--
compound: CCCc1c(OC)ccc(C(=O)/C=C/c2ccc(N3CCOCC3)cc2)c1O
GI50: 14.3 µM
--
compound: O=C1C(Cc2ccc(Cl)cc2)COCC1Cc1ccc(Cl)cc1 (stereo not shown)
GI50: > 30 µM
--
compound: CCCc1c(OC)ccc(C(=O)/C=C/c2ccc(N(C)C)cc2)c1O
GI50: 16.3 µM
--
compound: CCCc1c(OC)ccc2c(=O)cc(-c3cc(OC)c(OC)c(OC)c3)oc12
GI50: > 30 µM
--
compound: CCCc1c(OC)ccc(C(O)/C=C/c2cc(OC)c(OC)c(OC)c2)c1O (stereo not shown)
GI50: 12 µM
--
compound: COc1cc2c(cc1OC)C(=O)/C(=C/c1ccc(Cl)cc1)C2
GI50: 4.5 µM
--
compound: COc1cc(/C=C2\CC/C(=C\c3cc(OC)c(OC)c(OC)c3)C2=O)cc(OC)c1OC
GI50: 0.07 µM
--
compound: O=C1/C(=C/c2ccc(Cl)cc2)Cc2ccccc21
GI50: > 30 µM
--
compound: O=C1/C(=C/c2ccc(Cl)cc2)CSc2ccccc21
GI50: 7.95 µM

---

# Test system: HCT116 p53^−/− cells
# testMethodNotes: SRB growth inhibition assay in HCT116 p53-/- cells
# Format: cell-based, human
# setupConditions: Homo sapiens, HCT-116; SRB assay, 48 h of treatment
Output satisfied for records whose GI50 is lower than 4 µM, not satisfied for records at or above 4 µM.

smilesInput: COc1cc(/C=C2\CCc3ccccc3C2=O)cc(OC)c1OC
label: not satisfied
//
smilesInput: COc1cc2c(cc1OC)C(=O)/C(=C/c1ccc(Cl)cc1)CC2
label: not satisfied
//
smilesInput: COc1cc(/C=C2\Cc3ccccc3C2=O)cc(OC)c1OC
label: satisfied
//
smilesInput: O=C(/C=C/c1ccc(Cl)cc1)/C=C/c1ccc(Cl)cc1
label: satisfied
//
smilesInput: CCCc1c(OC)ccc(C(=O)/C=C/c2ccc(Cl)cc2)c1O
label: not satisfied

---

# Tested on: HCT116 p53^−/− cells
# testMethodNotes: SRB growth inhibition assay in HCT116 p53-/- cells
# Type: cell-based, human
# setupConditions: GI50 of HCT116 p53^−/−/GI50 of HCT116 p53^+/+
reportedMetric: SI1: Selective index 1

compound: O=C1/C(=C/c2ccc(Cl)cc2)CCC/C1=C\c1ccc(Cl)cc1 [Compound 19]
endpointResult: 0.95
//
compound: CCCc1c(OC)ccc(C(=O)/C=C/c2ccc(Br)cc2)c1O [Compound 34]
endpointResult: 0.62
//
compound: CC(C)=CCOc1ccc(/C=C2\COC/C(=C\c3ccc(OCC=C(C)C)cc3)C2=O)cc1 [Compound 40]
endpointResult: 0.61
//
compound: COc1cc2c(cc1OC)C(=O)/C(=C/c1cc(OC)c(OC)c(OC)c1)CC2 [Compound 10]
endpointResult: 0.73
//
compound: COc1cc(/C=C2\Cc3ccccc3C2=O)cc(OC)c1OC [Compound 3]
endpointResult: 0.70
//
compound: COc1cc(/C=C2\CSC/C(=C\c3cc(OC)c(OC)c(OC)c3)C2=O)cc(OC)c1OC [Compound 24]
endpointResult: 1.84
//
compound: COc1cc(/C=C2\CCC/C(=C\c3cc(OC)c(OC)c(OC)c3)C2=O)cc(OC)c1OC [Compound 23]
endpointResult: 0.24
//
compound: CCCc1c(OC)ccc(C(=O)/C=C/c2ccc(F)cc2)c1O [Compound 33]
endpointResult: 0.77
//
compound: CCCc1c(OC)ccc(C(O)/C=C/c2cc(OC)c(OC)c(OC)c2)c1O (centres unmarked) [Compound 28]
endpointResult: 0.80
//
compound: CCCc1c(OC)ccc(C(=O)/C=C/c2ccc(Cl)cc2)c1O [Compound 32]
endpointResult: 1
//
compound: O=C1/C(=C/c2ccc(Cl)cc2)COc2ccccc21 [Compound 15]
endpointResult: 0.62
//
compound: CCCc1c(OC)ccc(C(=O)/C=C/c2cc(OC)c(OC)c(OC)c2)c1OCC=C(C)C [Compound 26]
endpointResult: 0.77
//
compound: COc1ccc2c(c1OC)C/C(=C\c1ccc(Cl)cc1)C2=O [Compound 7]
endpointResult: 0.61
//
compound: COc1cc(/C=C2\COc3ccccc3C2=O)cc(OC)c1OC [Compound 11]
endpointResult: 0.97
//
compound: O=C1/C(=C/c2ccc(Cl)cc2)CSC/C1=C\c1ccc(Cl)cc1 [Compound 20]
endpointResult: 0.93
//
compound: O=C1/C(=C/c2ccc(Cl)cc2)COC/C1=C\c1ccc(Cl)cc1 [BP-C4 (2)]
endpointResult: 1.62
//
compound: O=C1/C(=C/c2ccc(Cl)cc2)CSc2ccccc21 [Compound 16]
endpointResult: 11.5
//
compound: CCCc1c(OC)ccc(C(=O)/C=C/c2ccc(N(C)C)cc2)c1O [Compound 35]
endpointResult: 1.52
//
compound: COc1cc(/C=C2\Cc3c(ccc(OC)c3OC)C2=O)cc(OC)c1OC [Compound 4]
endpointResult: 0.82
//
compound: COc1cc(/C=C2\CC/C(=C\c3cc(OC)c(OC)c(OC)c3)C2=O)cc(OC)c1OC [Compound 22]
endpointResult: 0.78

Cited source: paper PMC10610188
